# Lookup of reported IC50 keyed by entry
Molecular target: UniProtKB Q9P992
Sequence (Q9P992 whole entry): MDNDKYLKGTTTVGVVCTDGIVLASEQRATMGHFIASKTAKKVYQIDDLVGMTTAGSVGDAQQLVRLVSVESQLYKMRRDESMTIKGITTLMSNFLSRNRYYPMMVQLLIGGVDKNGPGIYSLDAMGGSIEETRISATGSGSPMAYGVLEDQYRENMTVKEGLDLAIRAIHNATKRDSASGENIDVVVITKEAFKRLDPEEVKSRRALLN
Experiment: Table 2: effects of tea polyphenols on 20S prokaryotic proteasome activities
Type: biochemical
Conditions: Table 2, This work

| Compound | IC50 |
| --- | --- |
| O=C(OC1Cc2c(O)cc(O)cc2OC1c1ccc(O)cc1)c1cc(O)c(O)c(O)c1 (centres unmarked) | 4560 nM |
| O=C(O[C@@H]1Cc2c(O)cc(O)cc2O[C@@H]1c1cc(O)c(O)c(O)c1)c1cc(O)c(O)c(O)c1 [(−)-EGCG, (−)-epigallocatechin-3-gallate, reference compound] | 300 nM |
| O=C(O[C@H]1Cc2c(O)cc(O)c(Cc3ccccc3)c2O[C@H]1c1ccc(O)c(O)c1)c1cc(O)c(O)c(O)c1 | 390 nM |
| O=C(O[C@H]1Cc2c(O)cc(O)cc2O[C@H]1c1ccccc1)c1cc(O)c(O)c(O)c1 | 4560 nM |
| O=C(O[C@@H]1Cc2c(O)cc(O)cc2O[C@@H]1c1ccc(O)cc1)c1cc(O)c(O)c(O)c1 | 2690 nM |
